// provenance: ChEMBL document CHEMBL1201862

Measured GI50, listed per entry.
test system: OVCAR-4; test: NCI tumour cell line growth inhibition, 48 h
Active and inactive are the calls of the source. Cut-off read from the data, not from the text of the source: active = GI50 up to about 1.1 µM and inactive = higher. Residues, ends and D or L forms follow the SMILES beside them.

compound	target.or.system	GI50
O=C(N/N=C(\C1=Nc2ccc(Cl)cc2NC1O)C(O)/C=C/c1ccccc1)c1ccncc1 (centres undefined)	OVCAR-4	> 100 µM (inactive)
CN(C)/C=N/c1nc2c(ncn2C2OC(CO)C(O)C2O)c(=O)[nH]1 (centres undefined)	OVCAR-4	> 100 µM (inactive)

Documented GI50 of "CN/C=C(\C(=O)c1ccc(OC)c(OC)c1)c1ccc(OC)cc1" : 24.5 µM (inactive)

Documented GI50 of CCC(C)C(NC(=O)C(CC(C)C)NC(=O)CNC(=O)C(NC(=O)C1CCCN1C(=O)C(CC(C)C)NC(=O)C(N)Cc1ccccc1)C(C)CC)C(=O)NC(CC(C)C)C(N)=O (centres undefined) (H-FLPIGLIL-NH2; configuration not given here) : > 75 µM (inactive)

Documented GI50 of CCN(CC)CC(O)CNc1ccc(NCC(O)CCl)c2c1C(=O)c1ccccc1C2=O (centres undefined) : 6.52 µM (inactive)

Documented GI50 of "CC(=O)Oc1ccccc1" : > 100 µM (inactive)

Documented GI50 of "CCOc1ccc(OCC)c([P+](c2ccccc2)(c2ccccc2)c2ccccc2)c1" : 1.19 µM (inactive)

Documented GI50 of "CN(C)c1cccc(OC(=O)NCCCl)c1" : > 100 µM (inactive)

Documented GI50 of "CCOC(=O)C(=O)/C(=C/N1C(=O)CC(=O)NC1=S)C(=O)OCC" : > 100 µM (inactive)
